molecular target: HLA‐A2 (Homo sapiens, UniProt P04439, D140Y/D185E/D98H/E176V/E277Q/G131W/G231S/I119V/I121R/I166T/I218V/L300P/L318F/N151K/N90K/P208A/P217A/Q86G/Q94H/R138H/R169H/T345S); construct: host or cells: BSM cells (HLA-A2+, HPV16-negative suspension cell line); experiment: In vitro competition-based cellular binding assay; details: acid-stripped BSM cells, β2M, 150 nM fluorescein-labeled reference peptide FLPSDC(Fl)FPSV, test peptide 0.78–100 μM, overnight 4 °C, flow cytometry; mean of at least three experimental replicates; read-out: Experimental binding affinity [IC50(μM)]
Where a SMILES comes first, the peptide text is derived from it.
IC50 listing for selected molecules.

MOLECULE	DISPLAY_UNIT	IC50
CSCC[C@H](NC(=O)[C@@H](N)Cc1ccc(O)cc1)C(=O)N[C@@H](CC(C)C)C(=O)N[C@@H](CC(=O)O)C(=O)N[C@@H](CC(C)C)C(=O)N[C@@H](CCC(N)=O)C(=O)N1CCC[C@H]1C(=O)N[C@@H](CCC(=O)O)C(=O)O [E7_11–18] (H-YMLDLQPE-OH)	µM	8.07
CSCC[C@H](NC(=O)[C@@H](N)Cc1ccc(O)cc1)C(=O)N[C@@H](CC(C)C)C(=O)N[C@@H](CC(=O)O)C(=O)N[C@@H](CC(C)C)C(=O)N[C@@H](CCC(N)=O)C(=O)N1CCC[C@H]1C(=O)N[C@@H](CCC(=O)O)C(=O)N[C@H](C(=O)N[C@H](C(=O)N[C@@H](CC(=O)O)C(=O)O)[C@@H](C)O)[C@@H](C)O [E7_11–21]	µM	2.37

###

target: HLA‐A2 (Homo sapiens, UniProt P04439, D140Y/D185E/D98H/E176V/E277Q/G131W/G231S/I119V/I121R/I166T/I218V/L300P/L318F/N151K/N90K/P208A/P217A/Q86G/Q94H/R138H/R169H/T345S); construct: host or cells: BSM cells (HLA-A2+, HPV16-negative suspension cell line); experiment: In vitro competition-based cellular binding assay; conditions: acid-stripped BSM cells, β2M, 150 nM fluorescein-labeled reference peptide FLPSDC(Fl)FPSV, test peptide 0.78–100 μM, overnight 4 °C, flow cytometry; mean of at least three experimental replicates; read-out: Experimental binding affinity [IC50(μM)]
Where a SMILES comes first, the peptide text is derived from it.
IC50 listing for selected compounds.
ASSAY_READOUT: IC50

COMPOUND	ASSAY_READOUT	VALUE_OBSERVED
CC[C@H](C)[C@H](NC(=O)[C@H](CC(=O)O)NC(=O)[C@H](Cc1c[nH]cn1)NC(=O)[C@@H](NC(=O)[C@@H](NC(=O)[C@@H](NC(=O)[C@H](CCC(N)=O)NC(=O)[C@H](CC(C)C)NC(=O)[C@@H](N)CCC(=O)O)[C@@H](C)O)[C@@H](C)O)[C@@H](C)CC)C(=O)O [E6_25–33] (H-ELQTTIHDI-OH)	IC50	36.9 µM
CC[C@H](C)[C@H](NC(=O)CNC(=O)[C@H](CC(C)C)NC(=O)[C@@H](NC(=O)CNC(=O)[C@H](CCSC)NC(=O)[C@H](CC(C)C)NC(=O)[C@H](CC(C)C)NC(=O)[C@H](CC(=O)O)NC(=O)[C@@H](N)CCC(=O)O)[C@@H](C)O)C(=O)N[C@H](C(=O)O)C(C)C [E7_80–90] (H-EDLLMGTLGIV-OH)	IC50	14.2 µM
CSCC[C@H](NC(=O)[C@H](Cc1ccc(O)cc1)NC(=O)[C@H](CCC(=O)O)NC(=O)[C@H](Cc1c[nH]cn1)NC(=O)[C@H](CC(C)C)NC(=O)[C@@H](N)[C@@H](C)O)C(=O)N[C@@H](CC(C)C)C(=O)N[C@@H](CC(=O)O)C(=O)N[C@@H](CC(C)C)C(=O)N[C@@H](CCC(N)=O)C(=O)N1CCC[C@H]1C(=O)O [E7_7–17] (H-TLHEYMLDLQP-OH)	IC50	19.3 µM
